- system-under-test: Proteasome
- assay-notes: Inhibitory activity against proteasome
pKi: −log10 of the molar value.
Reported values of pKi for individual entries
reported-metric: pKi

CS(=O)(=O)NCCCC[C@H](NC(=O)C(CCCCCCCCN1C(=O)c2ccccc2C1=O)C1CCCC1)C(=O)N[C@@H](Cc1ccccc1)C(=O)C(=O)NCCNS(=O)(=O)c1ccccc1 (some centres not stated) :: 7.39
O=C(NCCNS(=O)(=O)c1ccccc1)C(=O)[C@H](Cc1ccccc1)NC(=O)[C@H](CCCCNC(=O)c1cnccn1)NC(=O)C(CCCCCCCCN1C(=O)c2ccccc2C1=O)C1CCCC1 (some centres not stated) :: 7.10
N/C(=N\CCC[C@H](NC(=O)C(CCCCCCCCN1C(=O)c2ccccc2C1=O)C1CCCC1)C(=O)N[C@@H](Cc1ccccc1)C(=O)C(=O)NCCNS(=O)(=O)c1ccccc1)N[N+](=O)[O-] (some centres not stated) :: 8.96
CC(C)(C)OC(=O)NCCNC(=O)C(=O)[C@H](Cc1ccccc1)NC(=O)[C@H](CCC/N=C(\N)N[N+](=O)[O-])NC(=O)C(CCCCCCCCN1C(=O)c2ccccc2C1=O)C1CCCC1 (some centres not stated) :: 8.66
NCCCC[C@H](NC(=O)C(CCCCCCCCN1C(=O)c2ccccc2C1=O)C1CCCC1)C(=O)N[C@@H](Cc1ccccc1)C(=O)C(=O)NCCNS(=O)(=O)c1ccccc1 (some centres not stated) :: 7.66
NCCNC(=O)C(=O)[C@H](Cc1ccccc1)NC(=O)[C@H](CCC/N=C(\N)N[N+](=O)[O-])NC(=O)C(CCCCCCCCN1C(=O)c2ccccc2C1=O)C1CCCC1 (some centres not stated) :: 7.17
CCNC(=O)C(=O)[C@H](Cc1ccccc1)NC(=O)[C@H](CCC/N=C(\N)N[N+](=O)[O-])NC(=O)C(CCCCCCCCN1C(=O)c2ccccc2C1=O)C1CCCC1 (some centres not stated) :: 7.92
